- TARGET UNDER TEST: Sulfonylurea receptor 2, Kir6.2 (Homo sapiens, UniProt O60706+Q14654)
- Sequence (Q14654 whole entry): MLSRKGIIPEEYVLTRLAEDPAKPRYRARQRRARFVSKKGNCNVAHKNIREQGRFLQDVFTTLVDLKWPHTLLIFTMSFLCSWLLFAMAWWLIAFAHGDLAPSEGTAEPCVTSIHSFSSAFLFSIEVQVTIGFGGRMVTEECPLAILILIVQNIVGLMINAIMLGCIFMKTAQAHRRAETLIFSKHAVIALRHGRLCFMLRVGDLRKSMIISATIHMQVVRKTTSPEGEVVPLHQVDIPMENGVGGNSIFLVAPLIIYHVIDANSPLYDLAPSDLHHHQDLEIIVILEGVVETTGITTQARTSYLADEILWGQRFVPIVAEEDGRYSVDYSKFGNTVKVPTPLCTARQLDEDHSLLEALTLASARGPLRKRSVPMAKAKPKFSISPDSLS
- Sequence (O60706 whole entry): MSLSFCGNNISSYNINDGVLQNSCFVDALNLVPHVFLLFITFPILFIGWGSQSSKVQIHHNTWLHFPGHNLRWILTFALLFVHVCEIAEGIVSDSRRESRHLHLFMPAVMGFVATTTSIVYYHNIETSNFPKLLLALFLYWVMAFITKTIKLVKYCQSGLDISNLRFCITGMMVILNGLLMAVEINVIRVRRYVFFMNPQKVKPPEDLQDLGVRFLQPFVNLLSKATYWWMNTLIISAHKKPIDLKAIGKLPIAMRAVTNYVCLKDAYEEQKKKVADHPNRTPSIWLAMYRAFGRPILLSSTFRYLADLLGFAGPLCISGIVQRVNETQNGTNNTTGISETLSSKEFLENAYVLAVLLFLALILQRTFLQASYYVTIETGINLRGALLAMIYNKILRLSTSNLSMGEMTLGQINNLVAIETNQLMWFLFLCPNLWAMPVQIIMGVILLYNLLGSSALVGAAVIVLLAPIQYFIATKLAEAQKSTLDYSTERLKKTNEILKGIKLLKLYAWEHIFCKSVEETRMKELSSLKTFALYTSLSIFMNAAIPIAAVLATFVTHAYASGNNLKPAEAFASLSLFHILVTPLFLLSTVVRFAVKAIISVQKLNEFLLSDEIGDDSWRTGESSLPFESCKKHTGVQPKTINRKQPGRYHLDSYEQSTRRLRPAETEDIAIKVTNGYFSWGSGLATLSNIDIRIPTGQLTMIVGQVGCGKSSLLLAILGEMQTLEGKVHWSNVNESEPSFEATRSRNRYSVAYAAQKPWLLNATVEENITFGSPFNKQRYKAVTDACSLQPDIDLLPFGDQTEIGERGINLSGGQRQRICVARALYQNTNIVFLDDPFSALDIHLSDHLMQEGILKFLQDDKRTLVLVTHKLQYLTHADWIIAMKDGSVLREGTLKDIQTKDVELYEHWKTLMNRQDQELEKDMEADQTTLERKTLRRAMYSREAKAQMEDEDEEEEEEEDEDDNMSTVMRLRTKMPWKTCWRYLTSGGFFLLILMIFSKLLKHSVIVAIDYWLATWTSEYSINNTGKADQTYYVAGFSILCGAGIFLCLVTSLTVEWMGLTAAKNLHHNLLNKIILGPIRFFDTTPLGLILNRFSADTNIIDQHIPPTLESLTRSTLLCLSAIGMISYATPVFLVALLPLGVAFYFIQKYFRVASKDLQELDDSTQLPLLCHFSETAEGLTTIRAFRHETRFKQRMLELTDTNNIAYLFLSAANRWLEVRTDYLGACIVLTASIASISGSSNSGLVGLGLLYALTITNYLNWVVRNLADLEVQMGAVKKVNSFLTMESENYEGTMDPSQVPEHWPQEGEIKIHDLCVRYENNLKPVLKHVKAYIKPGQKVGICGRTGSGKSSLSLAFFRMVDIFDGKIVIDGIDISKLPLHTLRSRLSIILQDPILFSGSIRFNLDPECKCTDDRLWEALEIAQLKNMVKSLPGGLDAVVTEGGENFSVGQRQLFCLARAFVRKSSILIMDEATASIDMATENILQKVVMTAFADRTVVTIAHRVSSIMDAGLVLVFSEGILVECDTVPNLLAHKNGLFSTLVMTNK
- ASSAY DETAILS: Ability to open human urinary bladder Kir6.2 channel containing SUR2B in Ltk cells by FLIPR assay
- Type: functional, cell-based
OBSERVATION TYPE: EC50 (nM)

COMPOUND	OBSERVATION TYPE	UNIT LABEL	NUMBER
CCC[C@H]1OC(O)=C2C1=NC1=C(C(=O)COC1)[C@H]2c1ccc(F)c(Cl)c1 (racemic)	EC50	nM	67.6
CC[C@H]1OCC(O)=C2C1=NC1=C(C(=O)COC1)[C@H]2c1ccc(Cl)c(Br)c1 (stereo in doubt; 75b)	EC50	nM	5500
CC[C@H]1OCC(O)=C2C1=NC1=C(C(=O)COC1)[C@H]2c1ccc(F)c(Br)c1 (stereo in doubt; 71a)	EC50	nM	170
CC[C@H]1OCC(O)=C2C1=NC1=C(C(=O)COC1)[C@H]2c1ccc(F)c(Br)c1 (racemic)	EC50	nM	186
CC[C@H]1OCC(O)=C2C1=NC1=C(C(=O)COC1)[C@H]2c1ccc(Br)c(Br)c1 (stereo in doubt; 77b)	EC50	nM	427

====

- TARGET UNDER TEST: Sulfonylurea receptor 2, Kir6.2 (Homo sapiens, UniProt O60706+Q14654)
- ASSAY DETAILS: Activity against pig bladder KATP channel opening assessed as ability to relax field-stimulated pig detrusor
- Assay type: functional, Sus scrofa
- MEASUREMENT PARAMETERS: target entry is the homologue from another species

MOLECULE	TARGET UNDER TEST	EC50
O=C1COCC2=C1[C@@H](c1ccc(F)c(Br)c1)C1=C(COC1=O)N2	Sulfonylurea receptor 2, Kir6.2 (Homo sapiens, UniProt O60706+Q14654)	589 nM
CCC(C)(C)NC(=NC#N)Nc1cccnc1	Sulfonylurea receptor 2, Kir6.2 (Homo sapiens, UniProt O60706+Q14654)	85.1 nM
CC[C@H]1OCC(O)=C2C1=NC1=C(C(=O)COC1)[C@H]2c1ccc(Cl)c(Cl)c1 (stereo in doubt; 74b)	Sulfonylurea receptor 2, Kir6.2 (Homo sapiens, UniProt O60706+Q14654)	2290 nM
O=C1COCC2=C1[C@@H](c1ccc(F)c(Br)c1)C1=C(O)O[C@@H](c3ccccc3)C1=N2 (relative stereo)	Sulfonylurea receptor 2, Kir6.2 (Homo sapiens, UniProt O60706+Q14654)	1290 nM
CC[C@H]1OC(O)=C2C1=NC1=C(C(=O)CSC1)[C@H]2c1ccc(F)c(Br)c1 (relative stereo)	Sulfonylurea receptor 2, Kir6.2 (Homo sapiens, UniProt O60706+Q14654)	891 nM
CCCC[C@H]1OC(O)=C2C1=NC1=C(C(=O)COC1)[C@H]2c1ccc(F)c(Br)c1 (stereo in doubt; 29b)	Sulfonylurea receptor 2, Kir6.2 (Homo sapiens, UniProt O60706+Q14654)	1660 nM
CC[C@H]1OC(O)=C2C1=NC1=C(C(=O)COC1)[C@H]2c1ccc(F)c(Br)c1 (stereo in doubt; 21a)	Sulfonylurea receptor 2, Kir6.2 (Homo sapiens, UniProt O60706+Q14654)	2950 nM
CC(C)C[C@H]1OC(O)=C2C1=NC1=C(C(=O)COC1)[C@H]2c1ccc(F)c(Br)c1 (stereo in doubt; 31b)	Sulfonylurea receptor 2, Kir6.2 (Homo sapiens, UniProt O60706+Q14654)	102 nM

# credit: ChEMBL document CHEMBL1137338
